# system.name: T1, huNABA-avi-his (hybrid protein N-A1-B3-A2: N and A1 domains of human BGP, B3 domain of human CEA, A2 domain … (human, biotinylated at the avi tag (in vivo, co-transfected biotin ligase)))
# T1 construct: also called NABA-avi-his reagent; biotinylated NABA
# T1 chain: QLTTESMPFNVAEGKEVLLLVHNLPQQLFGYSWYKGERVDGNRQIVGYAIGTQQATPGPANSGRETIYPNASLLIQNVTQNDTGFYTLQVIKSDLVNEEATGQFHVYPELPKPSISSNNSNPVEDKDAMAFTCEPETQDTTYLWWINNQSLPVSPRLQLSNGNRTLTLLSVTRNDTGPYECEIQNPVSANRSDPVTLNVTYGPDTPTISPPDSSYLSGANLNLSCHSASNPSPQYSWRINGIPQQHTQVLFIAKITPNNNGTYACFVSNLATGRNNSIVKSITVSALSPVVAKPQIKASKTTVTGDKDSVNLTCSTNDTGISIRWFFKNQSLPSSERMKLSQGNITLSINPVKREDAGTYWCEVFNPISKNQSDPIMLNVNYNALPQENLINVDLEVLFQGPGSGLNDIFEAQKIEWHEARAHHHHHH
# experiment.description: Biacore, column Affinity, CDR-L1 and CDR-L2 rows; antigen not named on the sheet, NABA-avi-his per paragraph 230
endpoint.name: Kd (nM)
Only the number, expressed in nM, is required.

Look over these answered cases.
PR1A3 (Fab, V domains shown, also called PR1A3 wt/wt; pMS22) VH: QVQLVQSGSELKKPGASVKVSCKASGYTFTEFGMNWVRQAPGQGLEWMGWINTKTGEATYVEEFKGRFVFSLDTSVSTAYLQISSLKAEDTAVYYCARWDFYDYVEAMDYWGQGTTVTVSS VL: DIQMTQSPSSLSASVGDRVTITCKASQNVGTNVAWYQQKPGKAPKLLIYSASYRYSGVPSRFSGSGSGTDFTLTISSLQPEDFATYYCHQYYTYPLFTFGQGTKLEIK = 3680
pAC23 (2F11) (Fab, V domains shown) VH: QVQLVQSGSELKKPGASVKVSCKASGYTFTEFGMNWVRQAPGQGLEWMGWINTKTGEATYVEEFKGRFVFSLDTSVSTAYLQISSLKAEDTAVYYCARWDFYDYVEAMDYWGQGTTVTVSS VL: DIQMTQSPSSLSASVGDRVTITCKASQIASTNVAWYQQKPGKAPKLLIYWASYRYSGVPSRFSGSGSGTDFTLTISSLQPEDFATYYCHQYYTYPLFTFGQGTKLEIK = 290

// next entry
Task item: For anti-CEA Fab with unmatured heavy chain CH7A and affinity matured light chain CL1A pAC18 (Fab, V domains shown, Fab format, bacterially expressed; also called CH7A + CL1A pAC18) VH: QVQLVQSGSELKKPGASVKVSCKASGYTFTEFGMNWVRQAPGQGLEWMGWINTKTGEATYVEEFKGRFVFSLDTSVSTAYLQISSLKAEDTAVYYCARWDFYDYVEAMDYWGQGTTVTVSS VL: DIQMTQSPSSLSASVGDRVTITCKASAAVGTYVAWYQQKPGKAPKLLIYSASYRKRGVPSRFSGSGSGTDFTLTISSLQPEDFATYYCHQYYTYPLFTFGQGTKLEIKR , write its Kd.
Reply: 220
